Where these numbers come from: the supplement of paper PMC10567573

B1: FBXO3 (parent)
chain: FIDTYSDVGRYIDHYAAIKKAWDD

Variants of: B1
Assay overview: protein stability index of a GFP-peptide fusion (GPS, HEK-293T) (PSI 1-6); higher = more stable;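 also: lentivirally expressed fusions sorted by FACS into six bins by GFP to DsRed ratio, PSI derived from sequencing read proportions per bin multiplied by bin number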
Recorded conditions: c terminus: a fixed tail appended
Experimental endpoint: protein stability index
The reply should be a number, written without any unit.

Here are 6 variants together with their reported answers.
| Seq text | Measured |
| --- | --- |
| FIDTYTDVGRYIDHYAAIKKAWDD [S6T] | 1.65 |
| FIDTYSDVGRYIDHYAAIKKAWHD [D23H] | 1.81 |
| FIDTYWDVGRYIDHYAAIKKAWDD [S6W] | 3.09 |
| FIDTYSDVGRYIDHYRAIKKAWDD [A16R] | 1.69 |
| FIDTYSDVGRMIDHYAAIKKAWDD [Y11M] | 1.85 |
| FIDTYSDVGRYIDHYMAIKKAWDD [A16M] | 1.25 |

For this variant ( FIDTYSDVGRYIDHYAAIKKAWAD [D23A] ), measured protein stability index is 1.74

For this variant ( FIDTYSDVGRYIDHYACIKKAWDD [A17C] ), measured protein stability index is 1.92
